Protocol details: Resistant factor, ratio of IC50 for antiproliferative activity against drug-tolerant human MDA-MB-231 cells to IC50 for human MDA-MB-231 cells
Type: functional

- Mol smiles: "OCCN1CCN(CCCN2c3ccccc3Sc3ccc(Cl)cc32)CC1"
  Ratio IC50: 1.05
- Mol smiles: "CS(=O)(=O)CCN(Cc1ccc(-c2ccc3ncnc(Nc4ccc(OCc5cccc(F)c5)c(Cl)c4)c3c2)o1)C(=O)CCC(=O)OCCN1CCN(CCCN2c3ccccc3Sc3ccc(Cl)cc32)CC1"
  Ratio IC50: 0.67
- Mol smiles: "CS(=O)(=O)CCN(Cc1ccc(-c2ccc3ncnc(Nc4ccc(OCc5cccc(F)c5)c(Cl)c4)c3c2)o1)C(=O)CCCC(=O)OCCN1CCN(CCCN2c3ccccc3Sc3ccc(Cl)cc32)CC1"
  Ratio IC50: 1.27
